Procedure details: Pharmacokinetic test, oral, SD rats
Assay type: in vivo
Experimental setup: rat, oral 10 mg/kg, plasma
Measured metric: AUC(0-inf)

The examples below pair each entry with its known result.
Nc1nccn2c(C34CCC(CO)(CC3)OC4)nc(-c3ccc(C(F)(F)c4cccc(Cl)c4F)cc3)c12: 1330 ng·h/mL
Nc1nccn2c(C34CCC(CO)(CC3)OC4)nc(-c3ccc(C(=O)Nc4ccccn4)cc3)c12: 20600 ng·h/mL
COc1cccc(Oc2ccc(-c3nc(C4CCC(CO)OC4)n4ccnc(N)c34)cc2)c1C(F)(F)F (centres unmarked): 2250 ng·h/mL
Cc1cc(Nc2ncnc3ccc(NC4=NC(C)(C)CO4)cc23)ccc1Oc1ccn2ncnc2c1 [Tucatinib, reference compound]: 2270 ng·h/mL
COc1cccc(Oc2ccc(-c3nc(C4CCC(CO)OC4)n4ccnc(N)c34)cc2)c1F (centres unmarked): 2520 ng·h/mL
Nc1nccn2c(C34CCC(CO)(CC3)OC4)nc(-c3ccc(C(F)(F)c4ccccc4)cc3)c12: 8860 ng·h/mL
CC#CC(=O)N1CC[C@@H](n2c(=O)n(-c3ccc(Oc4ccccc4)cc3)c3c(N)ncnc32)C1 [Tirabrutinib, reference compound]: 965 ng·h/mL
Nc1nccn2c(C3CCC(CO)OC3)nc(-c3ccc(C(F)(F)c4ccccc4)cc3)c12 (centres unmarked): 9630 ng·h/mL

Batch: AUC(0-inf) for all items listed.
1. COc1ccccc1C(=O)NCc1ccc(-c2nn(C3CCC(CO)OC3)c3ncnc(N)c23)cc1 (single isomer, unassigned)
2. Nc1nccn2c(C34CCC(CO)(CC3)OC4)nc(-c3ccc(C(=O)Nc4cc(C(F)(F)F)ccn4)cc3)c12
3. C=CC(=O)N1CCC[C@@H](n2nc(-c3ccc(Oc4ccccc4)cc3)c3c(N)ncnc32)C1 [Ibrutinib, reference compound]
4. O=C(c1ccc(Oc2ccccc2)cc1Cl)c1c[nH]c2ncnc(N[C@@H]3CC[C@@H](CO)OC3)c12 [ARQ-531, reference compound]
5. Nc1nccn2c(C3CCC(CO)OC3)nc(-c3ccc(C(=O)Nc4cc(C(F)(F)F)ccn4)cc3)c12 (single isomer, unassigned) [Compound 109-P1]
6. COc1cccc(Oc2ccc(-c3nc(C4CCC(CO)OC4)n4ccnc(N)c34)cc2)c1C#N (single isomer, unassigned) [Compound 89-P1]

Result:
1: 889 ng·h/mL; 2: 211000 ng·h/mL; 3: 362 ng·h/mL; 4: 16200 ng·h/mL; 5: 104000 ng·h/mL; 6: 8120 ng·h/mL
